targetOrSystem: human GluN1/GluN2B NMDA receptors (Homo sapiens)
Construct: expressed in transfected cells
Sequence (Q13224 27-1484, other chains not shown): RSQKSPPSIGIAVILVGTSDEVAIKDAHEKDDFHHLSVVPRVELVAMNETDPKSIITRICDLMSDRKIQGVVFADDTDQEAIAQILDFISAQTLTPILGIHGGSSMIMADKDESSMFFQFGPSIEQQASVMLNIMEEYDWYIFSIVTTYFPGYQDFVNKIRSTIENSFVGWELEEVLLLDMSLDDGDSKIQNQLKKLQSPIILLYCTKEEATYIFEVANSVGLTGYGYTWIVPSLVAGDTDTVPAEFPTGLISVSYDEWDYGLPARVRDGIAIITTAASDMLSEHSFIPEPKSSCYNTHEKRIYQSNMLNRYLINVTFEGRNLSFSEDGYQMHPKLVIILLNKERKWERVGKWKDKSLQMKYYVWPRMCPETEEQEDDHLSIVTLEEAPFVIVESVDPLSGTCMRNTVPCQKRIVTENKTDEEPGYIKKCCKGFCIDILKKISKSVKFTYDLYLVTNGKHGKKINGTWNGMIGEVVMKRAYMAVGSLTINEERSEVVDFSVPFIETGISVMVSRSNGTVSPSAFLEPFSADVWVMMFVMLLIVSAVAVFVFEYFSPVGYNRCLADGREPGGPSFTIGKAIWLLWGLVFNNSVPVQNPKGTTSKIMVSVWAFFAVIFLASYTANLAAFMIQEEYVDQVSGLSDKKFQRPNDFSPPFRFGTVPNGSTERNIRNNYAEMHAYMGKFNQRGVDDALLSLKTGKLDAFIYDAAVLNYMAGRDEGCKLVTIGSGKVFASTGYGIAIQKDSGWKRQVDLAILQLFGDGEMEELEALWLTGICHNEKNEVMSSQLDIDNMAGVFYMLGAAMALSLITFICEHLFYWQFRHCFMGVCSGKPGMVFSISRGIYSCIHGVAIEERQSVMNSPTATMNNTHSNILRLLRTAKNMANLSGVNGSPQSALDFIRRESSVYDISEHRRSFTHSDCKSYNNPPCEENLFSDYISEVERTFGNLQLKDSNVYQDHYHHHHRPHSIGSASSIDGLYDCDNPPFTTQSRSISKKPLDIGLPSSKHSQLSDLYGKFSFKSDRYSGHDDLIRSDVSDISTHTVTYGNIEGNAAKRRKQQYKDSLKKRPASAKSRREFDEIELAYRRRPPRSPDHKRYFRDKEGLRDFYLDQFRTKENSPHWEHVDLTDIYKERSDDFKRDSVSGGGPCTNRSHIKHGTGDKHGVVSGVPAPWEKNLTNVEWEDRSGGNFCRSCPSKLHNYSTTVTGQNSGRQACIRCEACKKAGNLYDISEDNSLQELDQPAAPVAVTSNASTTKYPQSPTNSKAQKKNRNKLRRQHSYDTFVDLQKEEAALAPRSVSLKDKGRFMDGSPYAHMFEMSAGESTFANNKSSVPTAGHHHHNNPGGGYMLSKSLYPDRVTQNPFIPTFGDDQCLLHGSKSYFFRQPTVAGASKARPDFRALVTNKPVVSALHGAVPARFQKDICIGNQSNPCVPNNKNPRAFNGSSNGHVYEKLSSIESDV
assayProtocol: Calcium flux (FLIPR) assay on cloned human GluN1/GluN2B ion channels expressed in mammalian cells, standard assay
Type: cell-based
measurementSetup: glutamate ~EC40, 10 μM glycine, stable cell line with Tet-On induced expression
measureName: IC50 (nM)

>>> df
                               smilesstring                            targetorsystem  measurename  valuecomparator  obsvalue
0  CC(F)(F)c1cccc(-c2cncc(CN3CC4(CC4)OC3=O)n2)c1  human GluN1/GluN2B NMDA receptors (Homo sapiens)         IC50                =        17
1  C[C@H]1CN(Cc2cncc(-c3ccc(Cl)c(OC(F)F)c3)n2)C(=O)O1  human GluN1/GluN2B NMDA receptors (Homo sapiens)         IC50                =        20
2  C[C@H]1CN(Cc2cncc(-c3ccc(F)c(OC(F)F)c3)n2)C(=O)O1  human GluN1/GluN2B NMDA receptors (Homo sapiens)         IC50                =        20
3  Cc1ncc(-c2ccc(F)c(OC(F)F)c2)nc1CN1CC2(CC2)OC1=O  human GluN1/GluN2B NMDA receptors (Homo sapiens)         IC50                =        66
4  Cc1ncc(-c2cccc(C(C)(F)F)c2)nc1CN1CC(C)(C)OC1=O  human GluN1/GluN2B NMDA receptors (Homo sapiens)         IC50                >      3000
5  O=C1OC2(CC2)CN1Cc1cncc(-c2ccc(F)c(C(F)F)c2)n1  human GluN1/GluN2B NMDA receptors (Homo sapiens)         IC50                =        13
6  Cc1ncc(-c2ccc(Cl)c(OC(F)F)c2)nc1CN1CC2(CC2)OC1=O  human GluN1/GluN2B NMDA receptors (Homo sapiens)         IC50                =       113
7  CC1(C)CN(Cc2cncc(-c3cccc(C(C)(F)F)c3)n2)C(=O)O1  human GluN1/GluN2B NMDA receptors (Homo sapiens)         IC50                =      4510
8  O=C1OC2(CCN1Cc1cncc(-c3ccc(F)c(C(F)F)c3)n1)CC2  human GluN1/GluN2B NMDA receptors (Homo sapiens)         IC50                =        61

----------
Listing of entries alongside the reported IC50.
targetOrSystem: human GluN1/GluN2B NMDA receptors (Homo sapiens)
Construct: expressed in transfected cells
assayProtocol: Calcium flux (FLIPR) assay on cloned human GluN1/GluN2B ion channels expressed in mammalian cells, standard assay
Format: cell-based
measurementSetup: glutamate ~EC40, 10 μM glycine, stable cell line with Tet-On induced expression
measureName: IC50 (nM)

                                    compound  obsvalue
 0  C[C@@H]1COC(=O)N1Cc1cncc(-c2ccc(F)c(OC(F)F)c2)n1 [Example 18]        44
 1  Cc1ncc(-c2ccc(F)c(C(F)F)c2)nc1CN1CCC2(CC2)OC1=O [Example 53]       102
 2  Cc1ncc(-c2ccc(F)c(C(F)F)c2)nc1CN1C(=O)OC[C@H]1C [Example 11]       192
 3  C[C@H]1COC(=O)N1Cc1cncc(-c2ccc(F)c(C(C)(F)F)c2)n1 [Example 47]       624
 4  Cc1ncc(-c2ccc(Cl)c(OC(F)F)c2)nc1CN1CCCOC1=O [Example 37]        18
 5  O=C1OCCN1Cc1cncc(-c2ccc(F)c(OC(F)F)c2)n1 [Example 2]        73
 6  CC1(C)CN(Cc2cncc(-c3ccc(Cl)c(OC(F)F)c3)n2)C(=O)O1 [Example 30]       669
 7  O=C1OCCCN1Cc1cncc(-c2ccc(F)c(C(F)F)c2)n1 [Example 9]        65
 8  O=C1OC2(CCN1Cc1cncc(-c3ccc(Cl)c(OC(F)F)c3)n1)CC2 [Example 50]        49
 9  O=C1OCCN1Cc1cncc(-c2ccc(F)c(C(F)F)c2)n1 [Example 1]       195
10  Cc1ncc(-c2ccc(F)c(C(F)F)c2)nc1CN1C(=O)OC[C@@H]1C [Example 12]       605
11  Cc1ncc(-c2ccc(F)c(OC(F)F)c2)nc1CN1C(=O)OC[C@@H]1C [Example 25]       388
12  O=C1OC2(CNC2)CN1Cc1cncc(-c2ccc(Cl)c(OC(F)F)c2)n1 [Example 67]       530
13  O=C1OC2(CC2)CN1Cc1cncc(-c2ccc(F)c(OC(F)F)c2)n1 [Example 16]        19
14  C[C@H]1COC(=O)N1Cc1cncc(-c2ccc(F)c(C(F)F)c2)n1 [Example 8]       872
15  Cc1ncc(-c2ccc(F)c(C(F)F)c2)nc1CN1CCCOC1=O [Example 15]        65
16  O=C1OCCCN1Cc1cncc(-c2ccc(F)c(OC(F)F)c2)n1 [Example 22]        17
17  O=C1OC2(CC2)CN1Cc1cncc(-c2ccc(Cl)c(OC(F)F)c2)n1 [Example 29]        19
18  C[C@H]1CN(Cc2cncc(-c3ccc(F)c(C(F)F)c3)n2)C(=O)O1 [Example 6]        60
